Consider the following sequences and their measured PBM binding z-score readings.
- Test system: LXRb:RXRa (NR concentration 270 nM, RXRa partner concentration 90 nM)
- ASSAY INFO: PBM binding z-score (relative to random genomic background probes); higher = stronger binding; sequences stand for … in GC…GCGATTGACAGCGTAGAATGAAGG
Please state the value as a number alone, without comment.

[[record]]
chain_sequence = "TCATATAGGTAGATGCTAGGTGAAAGTCCGATCT"
test_value = 0.357


Readout PBM binding z-score for `TATCGGAGGACACGAAGGTCAGAGCTTTCCAGAG` , test system LXRb:RXRa (NR concentration 270 nM, RXRa partner concentration 90 nM), was 1.14

Result for `GATACAGGGTCGAGGCCAGAGTACGCGTATTGAT` , tested on LXRb:RXRa (NR concentration 270 nM, RXRa partner concentration 90 nM), PBM binding z-score: 0.3

Summary line: `TCTAATAGTTGATTAGGGCAACCGAAACAGCGGA` , LXRb:RXRa (NR concentration 270 nM, RXRa partner concentration 90 nM), reported PBM binding z-score = 0.136

###

- Test system: VDR homodimer (NR concentration 270 nM)
- ASSAY INFO: PBM binding z-score (relative to random genomic background probes); higher = stronger binding; sequences stand for … in GC…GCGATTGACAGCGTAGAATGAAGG
EXPERIMENTAL ENDPOINT: PBM binding z-score
Give your answer as a number; write no unit.

Answered cases to consult:
[[record]]
chain_sequence = "TCATTTAGGTAAAAGGTGAAAGTCGGTGTGGTAA"
system = "VDR homodimer (NR concentration 270 nM)"
test_value = 0.375

[[record]]
chain_sequence = "GGAACGAGGGCTAAGTTGATAGCATCTGTCGACG"
system = "VDR homodimer (NR concentration 270 nM)"
test_value = -0.365


Reported PBM binding z-score ( `GCTGCTAGGTCAACTGATGGTCAGGTAAAGCTCG` ) = 0.0826

###

- Tested on: RARa:RXR (NR concentration 270 nM, RXRa partner concentration 90 nM)
- ASSAY INFO: PBM binding z-score (relative to random genomic background probes); higher = stronger binding; sequences stand for … in GC…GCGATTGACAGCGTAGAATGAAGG
Use PBM binding z-score to assign classes; range list: bin 0: < 1; bin 1: ≥ 1 and < 3; bin 2: ≥ 3

[[record]]
chain_sequence = "CGTCAAAGTTCAACTAAGGTACCGTAAAGCACGC"
class_assignment = "bin 2"

[[record]]
chain_sequence = "TCTCGGAGGACACGAGAGGTCAGAGCTCGACATC"
class_assignment = "bin 2"

[[record]]
chain_sequence = "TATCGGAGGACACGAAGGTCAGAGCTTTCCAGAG"
class_assignment = "bin 1"

[[record]]
chain_sequence = "TCCTGTAGATCAGCAGGTTAAGAAAGCTGGCCAA"
class_assignment = "bin 0"

[[record]]
chain_sequence = "CGTCCAAGGTCAGAGAGGTCAATGAATGCCGAGT"
class_assignment = "bin 2"

[[record]]
chain_sequence = "CATACAGGGTCAGCTAGGCCAGACTAGGGACGGC"
class_assignment = "bin 1"

[[record]]
chain_sequence = "CCAGACATGTGAAAGGTAACTCAGTCTGGTACGC"
class_assignment = "bin 0"

[[record]]
chain_sequence = "GCTGCTAGGTCAGGTAGGTCAGCTAACGGGTACG"
class_assignment = "bin 1"


Next:
Dear colleague, I would appreciate it if you could identify the bin for `CCGACTGGGGCAAAGGTAACCATACTCAGTACGA` and reply at your convenience. bin 1

###

- Tested on: THRa:RXRa (NR concentration 90 nM, RXRa partner concentration 90 nM)
- ASSAY INFO: PBM binding z-score (relative to random genomic background probes); higher = stronger binding; sequences stand for … in GC…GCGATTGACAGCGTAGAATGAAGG
Below, each of the sequences is paired with its reported PBM binding z-score value.

[[record]]
chain_sequence = "TCATATAGGTAAGCAGGTGAAAGTCCGTAAGTTA"
test_value = 0.462

[[record]]
chain_sequence = "TCGAGTAGGTTAGTCGGAGCATTCAGCCAACATA"
test_value = -0.658

[[record]]
chain_sequence = "CCTACTGGCCCAAAGGTCATTGATTCCAATGCTC"
test_value = 3.3

[[record]]
chain_sequence = "TCTGCTAGGTCAACGATGGTTAGCTAATCTGCTA"
test_value = 2.9

[[record]]
chain_sequence = "TCTAGTAGATCAAGCAGGTTAAGAAAGCCTGAGT"
test_value = 0.0974


Lab note: next sequence to report on.
For record `TCTCGGCGGACACGAAGGTCAGAGCTTTCCAGAG` the listed PBM binding z-score is 1.16

###

Some sequences, each annotated with its measured PBM binding z-score.
- Tested on: VDR:RXRa (NR concentration 270 nM, RXRa partner concentration 90 nM)
- ASSAY INFO: PBM binding z-score (relative to random genomic background probes); higher = stronger binding; sequences stand for … in GC…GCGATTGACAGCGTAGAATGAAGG

[[record]]
chain_sequence = "CGTCCAATGTCAGAGAGGTCAGTGAATGCCGAGT"
experimental_endpoint = "PBM binding z-score"
test_value = 5.22

[[record]]
chain_sequence = "AGTACGAGGGCAATGAGTTGATAGCACGGGTGGC"
experimental_endpoint = "PBM binding z-score"
test_value = 5.08

[[record]]
chain_sequence = "TCGAGTAGGTTAGGGGCATTCGGAATGGCGTCGA"
experimental_endpoint = "PBM binding z-score"
test_value = 0.55

[[record]]
chain_sequence = "GCAGCCAGGTGAAACGCAGGTAACTCAGGGTGGC"
experimental_endpoint = "PBM binding z-score"
test_value = -0.929

[[record]]
chain_sequence = "GCTTCTAGGTCAACTGATGGTCAGCTAAAGCTCG"
experimental_endpoint = "PBM binding z-score"
test_value = 2.06


Documented PBM binding z-score of `TCTAGTTGGTCAAAGGTCACAGACTCGAAATGCG` : 5.45

The sequence listed as `CCGACTGGGGCAAGATTACCATAACGCACAGCCA` has a reported PBM binding z-score of -0.621

response.value for `CTACCAAGGTGAACAAGGACGTTGATTACTATTC` (field: PBM binding z-score) = 3.82

sequence `CGTCCAAGGTCAAGGTTAGTGAAAGAGACTCGAA` , PBM binding z-score observed: 3.93

Summary for this sequence, `TTACCAGGGTGAAAGGTCGTTGATGCACGCCTTG` : PBM binding z-score is 3.28

###

- System: RARg homodimer (NR concentration 270 nM)
- ASSAY INFO: PBM binding z-score (relative to random genomic background probes); higher = stronger binding; sequences stand for … in GC…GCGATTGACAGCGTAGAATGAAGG
Binary classification by PBM binding z-score, with 0.9 as an inclusive lower bound for 1 (yes); all other cases are 0 (no).

[[record]]
chain_sequence = "GCGACTGGGGAATCAGCAGGTTACCATAACTTAA"
class_assignment = "0 (no)"

[[record]]
chain_sequence = "CCGACTGGCGCAAAGGTTACCATACTCAGTACGA"
class_assignment = "0 (no)"

[[record]]
chain_sequence = "GCTAGCAGCCCATTTGGGTCACTCAATGACGGGC"
class_assignment = "0 (no)"

[[record]]
chain_sequence = "GCGACTGGGGCATCAGCAGGTTACCATCACTTAA"
class_assignment = "0 (no)"

[[record]]
chain_sequence = "TCTATTAGTAGAAGGGCAACCGACGAGTCCGTTT"
class_assignment = "0 (no)"

[[record]]
chain_sequence = "AGAATGAGGTTAAGATCAGGGTAACAGAATACAT"
class_assignment = "1 (yes)"

[[record]]
chain_sequence = "CCGACTGGAGCAAGGTTACCATAACGCACAGCCA"
class_assignment = "0 (no)"

[[record]]
chain_sequence = "CCGACTGGGTCAGAAAGGTTACCATACCATCCGG"
class_assignment = "1 (yes)"

[[record]]
chain_sequence = "TCTTGTAGATCAACAGGAGGTTGAGAAAGATCGA"
class_assignment = "0 (no)"

[[record]]
chain_sequence = "ACTCGGAGGACCAAGGTCAGAGCTACGCCAGTGA"
class_assignment = "1 (yes)"


Does PBM binding z-score meet or surpass 0.9 for `TAGCCTAGGTCATTGGGCCTGTATAGTACGCATC` ? 1 (yes)

Check if PBM binding z-score >= 0.9 (inclusive). Item: `GCTAATTGGTCAGTAAAAGGTCACACACCGGTCG` 1 (yes)

Threshold query (PBM binding z-score >= 0.9) on `ACTATTAGTTGAGACGAGGGCAACCGATAGGTTG` 0 (no)

Dear colleague, could you confirm whether `TCTAGTAGTTGATTAGGGCAACCGAAACAGCGGA` has PBM binding z-score at or above 0.9? 0 (no)

Test whether the sequence `CGAAATAGGTCAGAACAGGACAGTGAAGGATGAT` records PBM binding z-score of 0.9 or higher. 1 (yes)

The measured values listed here are drawn from the supplement of paper PMC6555819.
